Entry source: PubChem BioAssay (NCI)

Reported TGI by item:
System: NCI-H460 lung
Test: NCI tumour cell line growth inhibition, 48 h

{"Structure smiles string": "Cc1nc2ccc(N)cc2[nH]c1=O", "TGI": "> 100 µM"}
{"Structure smiles string": "COc1cc(/C=C/c2ccccn2)cc(OC)c1OC", "TGI": "> 10 µM"}
{"Structure smiles string": "O=C(Nc1ccccc1)Nc1ccc(Cl)c(Cl)c1", "TGI": "> 100 µM"}
{"Structure smiles string": "CCSc1nc(-c2cccs2)nc2ccc(I)cc12", "TGI": "> 100 µM"}
{"Structure smiles string": "CCOC(=O)c1c2ccc(/C=C/c3ccccc3)ccc-2c(C(=O)OCC)c1N", "TGI": "> 100 µM"}

====

System: OVCAR-3 ovarian
Assay: NCI tumour cell line growth inhibition, 48 h
Measure name: TGI

{"Compound": "O=C(NNC(=O)c1ccccc1O)c1ccco1", "Experimental result": "> 100 µM"}
{"Compound": "O=S(=O)(Oc1ccc2ccccc2c1-c1c(OS(=O)(=O)C(F)(F)F)ccc2ccccc12)C(F)(F)F", "Experimental result": "> 100 µM"}
{"Compound": "COC(=O)[C@@H]1COC(C(C)(C)C)N1C(=O)C(c1ccccc1)c1ccccc1 (stereo partly drawn)", "Experimental result": "> 100 µM"}

====

Tested on: SK-MEL-28 melanoma
Test: NCI tumour cell line growth inhibition, 48 h

{"Compound": "C=C1CC(C)(COc2ccc3c(C)cc(=O)oc3c2)OC1=O (stereo unspecified)", "Target or system": "SK-MEL-28 melanoma", "TGI": "9.02 µM"}
{"Compound": "CCOC(=O)Nc1cc2c(c(N)n1)N=C(c1ccc3ccccc3c1)CN2", "Target or system": "SK-MEL-28 melanoma", "TGI": "> 100 µM"}
{"Compound": "Oc1ccc(-c2nc3cc(F)ccc3s2)cc1", "Target or system": "SK-MEL-28 melanoma", "TGI": "42.8 µM"}
{"Compound": "COc1cc([N+](=O)[O-])ccc1N1C(=O)C2c3[nH]c4ccccc4c3C3CCC(C(C)(C)C)CC3C2C1=O (stereo unspecified)", "Target or system": "SK-MEL-28 melanoma", "TGI": "34.7 µM"}
{"Compound": "CSc1nc(Br)nc2ncn(C3CC(Oc4ccc(C)cc4)C(COc4ccc(C)cc4)O3)c12 (stereo unspecified)", "Target or system": "SK-MEL-28 melanoma", "TGI": "> 100 µM"}
{"Compound": "COC(=O)/C(=N/NC(C)(C)C)C(C(=O)OC)C(=O)C(=O)Nc1nc2ccc([N+](=O)[O-])cc2s1 (stereo unspecified)", "Target or system": "SK-MEL-28 melanoma", "TGI": "> 100 µM"}
{"Compound": "O=C(NCCCNCCCCNCCCNC(=O)c1cc(-c2ccccc2)nc2ccccc12)c1cc(-c2ccccc2)nc2ccccc12", "Target or system": "SK-MEL-28 melanoma", "TGI": "3.3 µM"}
{"Compound": "Cc1ccc(N=NC(C2=NC(=O)CS2)c2nc3ccccc3[nH]2)cc1 (stereo unspecified)", "Target or system": "SK-MEL-28 melanoma", "TGI": "> 100 µM"}
{"Compound": "C#Cc1ccc(-n2c(/C=C/c3ccc4ccccc4c3)nc3ncccc3c2=O)cc1", "Target or system": "SK-MEL-28 melanoma", "TGI": "> 100 µM"}
{"Compound": "COc1ccc(/C=C2\\N=C(c3ccccc3)OC2=O)cc1OC(C)=O", "Target or system": "SK-MEL-28 melanoma", "TGI": "> 100 µM"}
{"Compound": "C=C1C(=O)C2(C)OC2(C)C1C(=O)O (stereo unspecified)", "Target or system": "SK-MEL-28 melanoma", "TGI": "> 100 µM"}
